System name: hCA II (Homo sapiens, UniProt P00918)
Construct: gene CA2; recombinant human CA II, obtained in-house
Method notes: stopped-flow CO2 hydration assay
Type: biochemical
Conditions used: CO2 […]; […] Hepes pH […]; […] Na2SO4; room temperature; […] min pre-incubation
pKi: −log10 of the molar value.
Parameter measured: pKi

Below: 3 compounds and their reported pKi.
compound="N#CC(c1ccc(Br)cc1)N1CCN(CCN2C(=O)CNC2=O)CC1 (centres unmarked)" value_observed=5.30
compound="CC(C)C(C#N)N1CCN(C(=O)c2scnc2C(C)(C)C)CC1 (centres unmarked)" value_observed=5.04
compound="Cc1ccc(C(=O)NCC(=O)N2CCN(C(C#N)C(C)C)CC2)cc1 (centres unmarked)" value_observed=4.45

I = N#CC(c1ccccc1)N1CCN(C(=O)c2ccccc2)CC1 (centres unmarked)
II = N#CC(Nc1ccc(F)cc1)c1ccco1 (centres unmarked)
III = N#CC(c1ccccc1)N1CCN(Cc2cccnc2)CC1 (centres unmarked)
# desc sort on pKi across 3 compounds Put the labels in the order asked and list them.
III, II, I
(III: 5.43, II: 5.09, I: 4.27)

* * *

System name: hCA II (Homo sapiens)
Construct: gene CA2; recombinant human CA II, obtained in-house
Method notes: stopped-flow CO2 hydration assay
Assay type: biochemical
Description: stopped-flow CO2 hydration assay on hCA II
pKi: −log10 of the molar value.
Parameter measured: pKi

A = CC(C)C(C#N)N1CCN(CC(=O)NCc2ccccn2)CC1 (stereo not shown)
B = CC(C)C(C#N)N1CCN(Cc2nccn2CC(F)(F)F)CC1 (stereo not shown)
Endpoint returns whichever of A and B has the numerically higher pKi. Please indicate the selected item by its label.
A
(A: 6.11, B: 4.42)

* * *

System name: bCA (Bos taurus, UniProt P00921)
Construct: gene CA2; commercial bovine carbonic anhydrase
Sequence (P00921 2-260): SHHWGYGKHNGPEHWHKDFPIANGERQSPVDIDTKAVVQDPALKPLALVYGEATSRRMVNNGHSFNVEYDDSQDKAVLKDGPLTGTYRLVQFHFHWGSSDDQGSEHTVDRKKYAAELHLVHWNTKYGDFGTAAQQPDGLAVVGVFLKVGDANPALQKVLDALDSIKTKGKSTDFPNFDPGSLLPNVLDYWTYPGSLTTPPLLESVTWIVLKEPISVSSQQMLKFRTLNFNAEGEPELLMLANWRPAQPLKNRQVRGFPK
Method notes: biochemical
Parameters: Differential scanning fluorimetry (SYPRO Orange) melting temperature shift of bCA, 20 uM compound
Parameter measured: ΔTm at 20 µM (°C)

compound="Cc1ccccc1CN1CCN(C(=O)CN2CCN(C(C#N)C(C)C)CC2)CC1 (stereo not drawn)" system_name="bCA (Bos taurus, UniProt P00921)" value_observed=1.82
compound="CCc1noc(CC)c1CC(=O)N1CCN(C(C#N)C(C)C)CC1 (stereo not drawn)" system_name="bCA (Bos taurus, UniProt P00921)" value_observed=1.55
compound="CCNC(=O)CCCC(=O)N1CCN(C(C#N)c2ccccc2)CC1 (stereo not drawn)" system_name="bCA (Bos taurus, UniProt P00921)" value_observed=1.41

* * *

System name: hCA II (Homo sapiens, UniProt P00918)
Construct: gene CA2; recombinant human CA II, obtained in-house
Method notes: stopped-flow CO2 hydration assay
Format: biochemical
Conditions used: CO2 […]; […] Hepes pH […]; […] Na2SO4; room temperature; […] min pre-incubation
pKi: −log10 of the molar value.
Parameter measured: pKi

I = CCNC(=O)C1CCCN(C(C#N)c2c(F)cccc2Cl)C1 (centres unmarked) [compound 14, Z1230758078]
II = CC(C)C(C#N)N1CCN(C(=O)CN2CCOC(c3ccc(F)cc3)C2)CC1 (centres unmarked) [compound 45, Z1567277098]
III = N#CC(c1ccccc1)N1CCN(CC2CCOC2)CC1 (centres unmarked) [compound 37, Z1395305944]
IV = Cc1ccc(C(=O)C2CCN(CC(=O)N3CCN(C(C#N)C(C)C)CC3)CC2)cc1 (centres unmarked) [compound 48, Z1567280757]
Which order do these items take when sorted by rising pKi? List them. Sort and list the labels as requested.
II, I, IV, III
(II: 4.39, I: 5.03, IV: 5.26, III: 5.64)
